Target: T1, HLA-A*03:01 (human)
T1 construct: recombinant MHC class I molecule incubated with the synthetic peptide (REVEAL, ProImmune)
Experiment: REVEAL MHC-peptide binding assay, recombinant HLA
Protocol: Specifically, assessment was of a series of overlapping 9-mer peptides derived from the sequence […] […] In addition, a series of overlapping 9-mer peptides of each of a number of different variants of this portion also were assessed, each variant containing a mutation or mutations in this region as described in Example 2. […]
In Vitro Score: recorded values

-- ask Need In Vitro Score, item AFIIFWVLR (synthetic 9-mer variant; the entry already carries the change)
-- reply 0.3 % of positive control peptide

-- ask Need In Vitro Score, item VAFIIFWVL (synthetic 9-mer variant; the entry already carries the change)
-- reply 0 % of positive control peptide

-- ask Need In Vitro Score, item FWVKRGAKK (synthetic 9-mer variant; the entry already carries the change)
-- reply 4.7 % of positive control peptide
